Target: pre-pro-insulin glargine
Give measured Purity Insulin Glargine for each item. Keep answers brief.
Respond with the figure and its unit, in that order.

(Q) Which Purity Insulin Glargine value is on record for trypsin variant SEQ ID NO: 108 (protein) IVGGYTCAANSIPYQVSLNSGSHRCGGSLINSQWVVSAAHCYKPRIQVRLGEHNIDVLEGNEQFINAAKIITHPNFNPNTLDNDIMLIKLSSPATLNSAVATVSLPTSCAAAGTECLISGWGNTCSSGSSMPSLLQCLKAPVLSDSSCKSSYPGQITGNMICVGFLEGGADACQGDSGGPVVCNGQLQGIVSSGYGCAQKNKPGVYTKVCNYVNWIQQTIAAN ?
(A) 88.8 area %

(Q) Given the entry trypsin variant SEQ ID NO: 84 (protein) IVGGYTCAANSIPYQVSLNSGSHRCGGSLINSQWVVSAAHCYKPRIQVRLGEHNIHVLEGNEQFINAAKIITHPNFNPNTLDNDIMLIKLSSPATLNSNVATVSLPTSCAAAGTECLISGWGNTSSSGSSMPSLLQCLKAPVLSDSSCKSSYPGQITGNMICVGFLEGGKDSCQGDSGGPVVCNGQLQGIVSSGYGCAQKNKPGVYTKVCNYVNWIQQTIAAN , report its measured Purity Insulin Glargine.
(A) 85.4 area %

(Q) Look at this protein and give its reported Purity Insulin Glargine. trypsin variant SEQ ID NO: 36 (protein) IVGGYTCAANSIPYQVSLNSGSHRCGGSLINSQWVVSAAHCYKSRIQVRLGEHNIDVLEGNEQFINAAKIITHPNFNGNTLDNDIMLIKLSSPATLNSRVATVSLPRSCAAAGTECLISGWGNTKSSGSSMPSLLQCLKAPVLSDSSCKSSYPGQITGNMICVGFLEGGKDACQGDSGGPVVCNGQLQGIVSSGYGCAQKNKPGVYTKVCNYVNWIQQTIAAN
(A) 87.6 area %
